- methodNotes: yeast display, Sf9 membrane polyspecificity reagent, FACS + sequencing; frameworks hold sequencing errors
measuredQuantity: polyreactivity (PSR sort gate)

# count of solved cases: 4
- sequenceContent: "QVQLVESGGGLVQAGGSLRLSCAASGITLTKNAMGWYRQAPGKERELVAGITRGSRTNYADSVKGRFTISRDNAKNTVYLQMNSLKPEDTAVYYCAASYGPYRGPVGGSKMYYWGQGTQVTVSS"
  measuredQuantity: "polyreactivity (PSR sort gate)"
  result: "high polyreactivity"
- sequenceContent: "QVQLVESGGGLVQAGGSLRLSCAASGSTFRNYAMGWSRQAPGKERELVAAISGSGGRTKYADSVKGRFTISRDNAKNTVYLQMNSLKPEDTAVYYWNARFPDWALSEISHSTTYGLWGQGTLVTVSS"
  measuredQuantity: "polyreactivity (PSR sort gate)"
  result: "low polyreactivity"
- sequenceContent: "QVQLVESGGGLVQAGGSLRLSCAASGLIFYAYVMGWYRPAPGKERELVAAITVSGGSTYYADSVKGRFTISRDNAKNTVYLQMNSLKPEDTAVYYCAADWNFYQRTFDSWGQGTQVTVSS"
  measuredQuantity: "polyreactivity (PSR sort gate)"
  result: "low polyreactivity"
- sequenceContent: "QVQLVESGGGLVQAGGSLRLSCAASGSTFPGYAMGWYRQAPGKERELVAAITWSGVTTYYADTVKGRFTMSRDNAKNTVYIQMNSLKPEDTAVYYCATGTLYSDGAIYGYWGQATQVTVSS"
  measuredQuantity: "polyreactivity (PSR sort gate)"
  result: "low polyreactivity"

For the next question, use this sequence.
Please give the documented polyreactivity (PSR sort gate) of "QVQLVESGGGLVQAGGSLRLSCAASGITFVFYTMGWYRQAPGKERELVAAIARSGASTYYADSVKGRFTLSRDNAKNTVYLQMNSLKPEDTALYYGAADRGYRFRMDYWGQGTQVTVSS" high polyreactivity

----------
- methodNotes: yeast display, Sf9 membrane polyspecificity reagent, FACS + sequencing; frameworks hold sequencing errors
measuredQuantity: polyreactivity (PSR sort gate)

# count of solved cases: 5
- sequenceContent: "QVQLVESGGCLVQAGGSLRLISAASGSTFQRYAIGWYRQAPGKERELVAAITWSNGSTYYADSVKGRFTISRDNAKNTVYLQMISLKPEDTAVYYCAAEVHFGGDYWGQGTQVTVSS"
  polyreactivity (PSR sort gate): "low polyreactivity"
- sequenceContent: "QVQLVESGGGLVQAGGSLRLSCAASGFTFTRYAMGWYRQAPGKERELVAAIRWSGGRTYYADSVKGRFTISRDNAKNTVYLQMNSLKPEDTAVYYCYAVFYDPRREYDYWGQGTQVTVSS"
  polyreactivity (PSR sort gate): "high polyreactivity"
- sequenceContent: "QVQLVESGGGLVQAGGSLRLSCAASGNTFGENAMGWYRQAPWKERELVAAISNGGTTNYADSVKGRFTISRDNAKNTVYLQMNSLKPEDTAVYYSNAKFGISQPGHSGLLKMDYWGQGTQVTVSS"
  polyreactivity (PSR sort gate): "low polyreactivity"
- sequenceContent: "QVQLVESGGGLVQAGGSLRLICDASGRIFRSYAMGWYRQAPGKERELVAAINWRGGSTFYADSVKGRFTISRDNAKNTVYLQMNSLKPEDTAVYYCARRGYRQSGDYWGQGTQVTVSS"
  polyreactivity (PSR sort gate): "low polyreactivity"
- sequenceContent: "QVQLVESGGGLVQAGGSLRLSCAASGFIFGLYAIGWYRQAPGKERELVAAISRSGGSTYYADSVKGRFTISRDNAKNTVYLQMNSLKPEDTAVYYCNARYSWPRATWYDYWGQGTQVTVSS"
  polyreactivity (PSR sort gate): "high polyreactivity"

Please give the documented polyreactivity (PSR sort gate) of "QVQLVESGGGLVQAGGSLRLSCAASGSTFSNYAMGWYRQAPGKERELVASISNGGSTNYADSVKGRFTISRDNAKNTVYLQMNSLKPEDTAVYYCNAESKAKYDYWGQGTQVTVSS" low polyreactivity

Please give the documented polyreactivity (PSR sort gate) of "QVQLVESGGGLVQAGGSLRLSCAASGSTFTYYAMGWYRQAPGKEREFVATITYSGGSTYYADSVKGRFTISRDNAKNTVYLQMNSLKPEDTAVYYCAARVGRPSLVAAKYDYWGQGTQVTVSS" high polyreactivity

----------
- methodNotes: yeast display, Sf9 membrane polyspecificity reagent, FACS + sequencing; frameworks hold sequencing errors
measuredQuantity: polyreactivity (PSR sort gate)

# count of solved cases: 5
- sequenceContent: "QVQLVESGGGLVQAGGSLRLSCAASGSTFGYYAMGWYRPAPGKERELVAAINVSGGRTYYADSVKGRFTISRDNAKNTVYLQMNSLKPEDTAVYYCAAQRPEYRAGRYNYWGQGTQVTVSS"
  polyreactivity (PSR sort gate): "high polyreactivity"
- sequenceContent: "QVQVVESGGGLFQAGGSLRLSCAASGYIFRFNAMGWSRQAPGKERELVAVITSGARTYYADSVKGRFTISRDNAKNTVYFQINSLKPEDTAFYYFNAGARRYLYDYWGQGTQVTVSS"
  polyreactivity (PSR sort gate): "low polyreactivity"
- sequenceContent: "QVQLVESGGGLVQAGGSLRLSCAASGSTFTGNAMGWYRPAPGKERELVADITWSDGSTDYADSVKGRFTISRDNAKNTVYLQMNSLKPDDTAVYYCNARITYYVGTAWYDYWGQGTQVTVSS"
  polyreactivity (PSR sort gate): "low polyreactivity"
- sequenceContent: "QGQHVESGVGLVQAGGSLRLSCAASVFMFESNAMGWYRQAPGKERELVAAITSAGRTYYADSVKGRFTISRDNAKNTVYLQMNSLKPEETAVYYCNAPRSRYRYDYWGQGTQVTVSS"
  polyreactivity (PSR sort gate): "high polyreactivity"
- sequenceContent: "QVQLVESGGGLVQAGGSLRLSSAASGRIFGTYAMGWYRQAPGKERELVAAITSGGRTYYADSVKGRFTISRDNAKNTVYLQMNSLKPEDNAVYYCARPSGYRKYYYWGQGTQVTVSS"
  polyreactivity (PSR sort gate): "high polyreactivity"

For the next question, use this sequence.
Please give the documented polyreactivity (PSR sort gate) of "QVQLVESGGGLVQAGGSLRLSCAASGFISPPYAMGWYRQAPGKVMELVAAISSNGGRTSYADSVKGRFTISRDNAKNTVYLQMNSLKPEDTAVYYCNAVYSLYYTRYNYWGQGTQETVSS" high polyreactivity

----------
- methodNotes: yeast display, Sf9 membrane polyspecificity reagent, FACS + sequencing; frameworks hold sequencing errors
measuredQuantity: polyreactivity (PSR sort gate)

# count of solved cases: 4
- sequenceContent: "QVQLVESGGGLVQAGGSLRLSCAASGSILKFNAMGWYRQAPGKERELVAAITRGTNTYYADSVKGRFTISRDNANNTFFLQMNSLKPEDTAVYYCAARLPYNAIGYYYWGQGTQVTVSS"
  polyreactivity (PSR sort gate): "low polyreactivity"
- sequenceContent: "QVQLVESGGGLVQAGGSLRLSCAASGFTFRYYVMGWYRQAPGKERELVARISTGASTHYADSVKGRFTISRDNAKNSVYLQKNSLKPEDTAVYYCASDHPAFGPGYSFDYWGLGTQVTVSS"
  polyreactivity (PSR sort gate): "low polyreactivity"
- sequenceContent: "QVQLVESGGGLVQAGGSLRLSCAASGFISRFNSMGWYRKAPGKERELVAAISWYGGITYYADSVKGRFTISRDNAKNTVYLQMNSLKPEDTAVYYCNAGDHIRKRYGISATWGYGYGYWGQGTQVTVSS"
  polyreactivity (PSR sort gate): "high polyreactivity"
- sequenceContent: "QVQLVESGGGLVQAGGSLRLSCAASGRIFRVNTMGWYRQAPGKERELVAAISTSGGTTYYADSVKGRFTISRDNAKNTVYIQLNSLKPEDTAVYYCNASYLTRRDGYIEDAIYDYWGQGTQVTVSS"
  polyreactivity (PSR sort gate): "low polyreactivity"

For the next question, use this sequence.
Please give the documented polyreactivity (PSR sort gate) of "QVQLVESGGGLVQAGGSLRLSCAASGFTFYYYTMGWYRQAPVKERELVAGITSRGGSTTYADSVKARFTISLDNAKNTVYLQMNSLKPEDTAVYYCNPLWAVHSGYDYLGQGTQVTVSS" high polyreactivity

----------
- methodNotes: yeast display, Sf9 membrane polyspecificity reagent, FACS + sequencing; frameworks hold sequencing errors
measuredQuantity: polyreactivity (PSR sort gate)

- sequenceContent: "QVQLVESGGGLGQAGGSLRLSCAASGFTFRYYAMGWNRQAPGKERELVAAISASGGSTYYADSVKGRFTISRDNAKNTVYLQMNSLKPEDTAVYYCARYYAKMDYWGQGTQVTVSS"
  polyreactivity (PSR sort gate): "high polyreactivity"
- sequenceContent: "QVQLVESGGGLVQAAGSLRLSCAASGSTFAANAMGWYRQAPGKERELVAAITWTGGSTYYADSVKGRFTISRDNAKNTVYLQMNSLKPEDTAVYYCARRSYGRYYYRYRAYDYWGQGTQVTVSS"
  polyreactivity (PSR sort gate): "high polyreactivity"
- sequenceContent: "QVQLVESGGGLVQAGGSVRLSCAASGSIFTGYAMGWYRQAPGKERELVAAISRSSGSTYYADSVKGRFTISRDNAKNTVYLQMNSLKPEDTAVYYCNAYSKYRSGRLYWMGYWGQGTQVTVSS"
  polyreactivity (PSR sort gate): "high polyreactivity"
- sequenceContent: "QVQLVESGGRLVQAGGSLRRSCAASGSTFASNAMRWYRPAPGKERELVAAITSRDASTYYADSVKGRFTISRDNAKNTVYLQMNSLKPEDTAVYYCATDGYSPAAFDYWGQGTQVTVSS"
  polyreactivity (PSR sort gate): "low polyreactivity"
- sequenceContent: "QVQLVESGGGLVQAGGSLRLSCAASGRIFFGNTMGWSRQAPGKERELVAVIDRSGGTTYYADSVKGRFTSSRDNAKNTVYLQMNSLKPEDTAVYYCAAIRRQKGLWDYYYWGQGTQVTVST"
  polyreactivity (PSR sort gate): "low polyreactivity"

Please give the documented polyreactivity (PSR sort gate) of "QVQLVESGGGLVQAGGSLRLSCAASGRTFYRYAMGWYRQAPGKERELVAAITTSGGSTYYADSVKGRFTISRDNAKNTVYLQMNSLKPEDTAVYYCAATYYGYHIRDDYWGQGTQVTVSS" low polyreactivity

Please give the documented polyreactivity (PSR sort gate) of "QVQLVESGGGLVQAGGSLRLSCAASGFTFYGYAMGWYRQAPGKERELVASISWSGGTTYYADSVKGRFTISRDNAKNTVYLQMNSLKPEDTAVYYCNAVRYRYGVFPYYYWGQGTQVTVSS" high polyreactivity

Please give the documented polyreactivity (PSR sort gate) of "QVQLEESGGGLVQAGGSLRLSCAASGGIFLGYAMGWYRQAPGTERELVAAISDSGGSTDYADSVKGRFTISRDHAKTTVYLQTHSLKPDDTAVYYCAAERRSTAGWLYDYWGQGTQVTVSS" high polyreactivity
